Target: T1, FZD8 CRD (Homo sapiens, UniProt Q9H461)
T1 construct: K31-D155; GPI anchor signal (C); expressed in transfected cells; host or cells: CHO cells, lentiviral pLenti-puro
T1 sequence (Q9H461 31-155): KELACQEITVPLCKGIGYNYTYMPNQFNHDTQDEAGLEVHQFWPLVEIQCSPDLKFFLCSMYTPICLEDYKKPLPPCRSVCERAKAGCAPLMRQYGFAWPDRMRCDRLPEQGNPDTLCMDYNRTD
Test: Flow cytometry of anti-FZD5 Fab binding to CHO cells overexpressing Frizzled CRD
Collected Median fluorescence, Frizzled CRD overexpressed on CHO cells: FZD8 values appear next to each entry.
READOUT_TYPE: Median fluorescence, Frizzled CRD overexpressed on CHO cells: FZD8

[
  {
    "MOLECULE": "Fab-2928: anti-FZD5 Fab with antibody variable region Fv-2928; CDR SEQ ID NOs: 35, 36, 67, 105, 143, 175 (antibody, V domains shown) VH: EVQLVESGGGLVQPGGSLRLSCAASGFNISYSSIHWVRQAPGKGLEWVASIYPSYSSTYYADSVKGRFTISADTSKNTAYLQMNSLRAEDTAVYYCARYYAMDYWGQGTLVTVSS VL: DIQMTQSPSSLSASVGDRVTITCRASQSVSSAVAWYQQKPGKAPKLLIYSASSLYSGVPSRFSGSRSGTDFTLTISSLQPEDFATYYCQQAFYYPITFGQGTKVEIK",
    "READOUT_NUMBER": 7.57
  },
  {
    "MOLECULE": "Fab-2925: anti-FZD5 Fab with antibody variable region Fv-2925; CDR SEQ ID NOs: 35, 36, 64, 102, 140, 172 (antibody, V domains shown) VH: EVQLVESGGGLVQPGGSLRLSCAASGFNLSYSSMHWVRQAPGKGLEWVASIYPSYGSTYYADSVKGRFTISADTSKNTAYLQMNSLRAEDTAVYYCARYGYFGLDYWGQGTLVTVSS VL: DIQMTQSPSSLSASVGDRVTITCRASQSVSSAVAWYQQKPGKAPKLLIYSASSLYSGVPSRFSGSRSGTDFTLTISSLQPEDFATYYCQQAWVYASLFTFGQGTKVEIK",
    "READOUT_NUMBER": 7.70
  }
]
